Each recorded value in this set is attributed to PubChem BioAssay (NCI).

System: NCI-H23 lung
assay.remarks: NCI-60 one-dose screen, 48 h (100 = growth as untreated, 0 = no growth, -100 = all killed)
cond: 10 µM
About 83,000 compounds went through this panel and 20% of them were active in at least one assay; those are over-represented in the sample as a whole.
Provide the recorded growth for the entries that follow.
Number in %, nothing else.

# growth (compound: O=C1C[C@H](c2ccccc2)[C@H](c2ccccc2)C1 ) is 102

# growth (compound: COc1ccc2c(c1)CCc1c-2n[nH]c1-c1[nH]nc2c1CCc1cc(OC)ccc1-2 ) is 75.4

# growth (compound: Cc1ccc(C(=O)N/N=C/c2ccc3c(c2)OCO3)cc1 ) is 91

# growth (compound: CC1(C)N=C(N)N=C(N)N1c1cccc(Br)c1 ) is 20.8

# growth (compound: COc1cc2c(cc1OC)[C@H](C(=O)O)[C@@H](c1ccc(OC(C)C)c(OC)c1)N(C)C2=O ) is 96.8

# growth (compound: CNS(=O)(=O)c1ccc(Cl)c(Cl)c1 ) is 110

# growth (compound: CNC(=O)c1ccccc1CC1(O)c2ccccc2Oc2ccccc21 ) is 71.5

# growth (compound: CC1Cc2ccccc2O1 (configuration not stated) ) is 98.6

# growth (compound: NC(=O)c1ccc(N=C(N)N=C(N)N)cc1 ) is 102

# growth (compound: CNC(=S)NC(C)(C)C ) is 104

# growth (compound: O=[N+]([O-])c1ccc(N=Nc2ccccc2)cc1 ) is 90.4

# growth (compound: CCOC(=O)Nc1nn[nH]n1 ) is 102

# growth (compound: N/N=C(/Cc1ccccc1)NNC(N)=S ) is 99

# growth (compound: C#CC(C(C)C)N(CCO)CCCC (configuration not stated) ) is 120

# growth (compound: Nc1nc(N)c2cc(S(=O)(=O)c3cccc(C(F)(F)F)c3)ccc2n1 ) is 53.5

# growth (compound: C/C(=C\c1cc(Cl)ccc1OCC(=O)O)[N+](=O)[O-] ) is 96.2

# growth (compound: O=C1C=CC(=O)N1c1ccc(I)cc1Cl ) is 100

# growth (compound: CC12CC3CC1C(C(=O)O2)C3C(=O)O (configuration not stated) ) is 96.8

# growth (compound: OCc1ccc(-c2ccc(-c3ccc(CO)s3)o2)s1 ) is 47.5

# growth (compound: CC(O)COc1ccc(-c2ccccc2)cc1 (configuration not stated) ) is 108

# growth (compound: CCOC(=O)CNN ) is 102

# growth (compound: O=C(CN1CCNCC1)N1CCOCC1 ) is 93.3

# growth (compound: CSC[C@H](NC(=O)COc1cccc2cnccc12)C(=O)NC(Cc1ccccc1)C(O)C(=O)N1CSC[C@H]1C(=O)NC(C)(C)C (some centres not stated) ) is 106

# growth (compound: C/C=C/CC(C)C(O)C1C(=O)NC(CC)C(=O)N(C)CC(=O)N(C)C(CC(C)C)C(=O)NC(C(C)C)C(=O)N(C)C(CC(C)C)C(=O)NC(C)C(=O)NC(C)C(=O)N(C)C(CC(C)C)C(=O)N(C)C(CC(C)C)C(=O)N(C)C(C(C)C)C(=O)N1C (configuration not stated) ) is 20.1

# growth (compound: O=c1c2ccccc2c(Br)c(Br)c2ccccc12 ) is 78.1

# growth (compound: Nc1ncnc2[nH]ncc12 ) is 17.7

# growth (compound: CC1CCC2C(C)(C)C3CC12CC1OC13C (configuration not stated) ) is 107

# growth (compound: c1ncc2[nH]cnc2n1 ) is 104

# growth (compound: CCN(CC)CCCC(C)Nc1ccnc(/C=C/c2ccc(Cl)cc2)c1 (configuration not stated) ) is 67.4

# growth (compound: c1ccc(Sc2ccccc2)cc1 ) is 105

# growth (compound: COc1cc2cc(OC(C)=O)c3cc4c(cc3c2c(OC)c1OC)OCO4 ) is 91.9

# growth (compound: CC1(O)CCCCC1O (configuration not stated) ) is 103

# growth (compound: Nc1ccccc1SC(CC(=O)c1ccccc1)c1c(Cl)cccc1Cl (configuration not stated) ) is 76.1

# growth (compound: CCOC(=O)C(=O)C=P(c1ccccc1)(c1ccccc1)c1ccccc1 ) is 99.4

# growth (compound: CCOC(=O)C(C#N)Cc1ccccc1 (configuration not stated) ) is 105

# growth (compound: CCOC(=O)c1cc2cccc(OC)c2oc1=O ) is 110

# growth (compound: O=S(=O)(Cc1ccccc1)c1ccccc1 ) is 105

# growth (compound: COc1ccc(Oc2c(I)cc(CC(NC(C)=O)C(=O)O)cc2I)cc1 (configuration not stated) ) is 61.9

# growth (compound: CCCC(=O)Nc1ccc2c(c1)CN1C(=O)c3ccccc3C1=N2 ) is 106

# growth (compound: Cc1cc2nc(CO)[nH]c2cc1C ) is 105

# growth (compound: CCC(O)CC(CC)CO (configuration not stated) ) is 101

# growth (compound: N#Cc1ccc(OC(=O)Nc2ccc(Cl)c(Cl)c2)cc1 ) is 39.6

# growth (compound: CCCCCCCCCCC(C)Br (configuration not stated) ) is 102

# growth (compound: OC1CCCc2ccccc21 (configuration not stated) ) is 104

# growth (compound: CCCCC(=O)c1ccc(OC)cc1 ) is 99.7

# growth (compound: OCCN(CCO)C(=S)S ) is 102

# growth (compound: COc1cc2nn(-c3ccccc3N)nc2cc1OC ) is 94.3
